procedure_details: Ratio of drug level from brain to plasma of B6C3F1 mouse at 2 mg/kg, iv
Assay type: ADME, organism-based
Set-up: dose 2 mg/kg, route intravenous
experimental_conditions: read-out: BPR
experimental_endpoint: Kp

q: Answer with reported Kp of `Nc1scc2c(C(=O)NC3CC3)nn(-c3ccc(Cl)cc3)c(=O)c12`
a: 1.58

----------
Test system: Plasma
procedure_details: Drug level in plasma of B6C3F1 mouse at 5 mg/kg, ip by LC-MS/MS analysis
Type: ADME, organism-based
Design: dose 5 mg/kg, route intraperitoneal
experimental_conditions: in vivo
experimental_endpoint: Drug uptake (ng/mL)
Form entry: value (ng/mL) — number only.

Sample answers from the record:
mol_smiles=CNC(=O)c1nn(-c2ccc(Cl)cc2)c(=O)c2c(N)scc12 unit_symbol=ng/mL numeric_readout=70
mol_smiles=CC(C)NC(=O)c1nn(-c2ccc(Cl)cc2)c(=O)c2c(N)scc12 unit_symbol=ng/mL numeric_readout=499
mol_smiles=CC(C)OC(=O)c1nn(-c2ccc(Cl)cc2)c(=O)c2c(N)scc12 unit_symbol=ng/mL numeric_readout=84

Attention now shifts to the item below.
q: Answer with reported Drug uptake of `CCOC(=O)c1nn(-c2ccc(Cl)cc2)c(=O)c2c(N)scc12`
a: 20

----------
inhibition values, listed per item
procedure_details: Inhibition of tau40 protein aggregation by orthogonal sedimentation based SDS-PAGE relative to control
Parameters: concentration or dose not given beside the values
experimental_conditions: concentration not given here
Form entry: value (%) — number only.

Sample answers from the record:
mol_smiles=CCOC(=O)c1nn(-c2ccc(Cl)cc2)c(=O)c2c(N)scc12 numeric_readout=48
mol_smiles=CNC(=O)c1nn(-c2ccc(Cl)cc2)c(=O)c2c(N)scc12 numeric_readout=61
mol_smiles=CC(C)NC(=O)c1nn(-c2ccc(Br)cc2)c(=O)c2c(N)scc12 numeric_readout=55
mol_smiles=CC(C)OC(=O)c1nn(-c2ccc(Cl)cc2)c(=O)c2c(N)scc12 numeric_readout=61
mol_smiles=Nc1scc2c(C(=O)O)nn(-c3ccc(Cl)cc3)c(=O)c12 numeric_readout=62
mol_smiles=Nc1scc2c(C(=O)NC3CC3)nn(-c3ccc(Cl)cc3)c(=O)c12 numeric_readout=58

q: Answer with reported inhibition of `CN(C)C(=O)c1nn(-c2ccc(Cl)cc2)c(=O)c2c(N)scc12`
a: 69

q: Answer with reported inhibition of `CCNC(=O)c1nn(-c2ccc(Cl)cc2)c(=O)c2c(N)scc12`
a: 87

q: Answer with reported inhibition of `CC(C)NC(=O)c1nn(-c2ccc(Cl)cc2)c(=O)c2c(N)scc12`
a: 45

q: Answer with reported inhibition of `CCN(C)C(=O)c1nn(-c2ccc(Cl)cc2)c(=O)c2c(N)scc12`
a: 58

----------
Organism: Homo sapiens
procedure_details: Inhibition of human full length tau40 protein-mediated bovine brain tubulin assembly at 62.5 uM by MT assembly assay
Active and inactive are the calls of the source. The calls are words filed in the database; no cut-off is given here.
experimental_endpoint: inhibition

mol_smiles=Nc1scc2c(C(=O)O)nn(-c3ccc(Cl)cc3)c(=O)c12 result=inactive
mol_smiles=CC(C)OC(=O)c1nn(-c2ccc(Cl)cc2)c(=O)c2c(N)scc12 result=inactive
mol_smiles=CCN(C)C(=O)c1nn(-c2ccc(Cl)cc2)c(=O)c2c(N)scc12 result=inactive
mol_smiles=CC(C)NC(=O)c1nn(-c2ccc(Cl)cc2)c(=O)c2c(N)scc12 result=inactive
mol_smiles=Nc1scc2c(C(=O)NC3CC3)nn(-c3ccc(Cl)cc3)c(=O)c12 result=inactive

Attention now shifts to the item below.
q: Answer with reported inhibition of `CC(C)NC(=O)c1nn(-c2ccc(Br)cc2)c(=O)c2c(N)scc12`
a: inactive

----------
procedure_details: Oral bioavailability in B6C3F1 mouse at 5 mg/kg
Assay type: ADME, organism-based
experimental_conditions: in vivo
experimental_endpoint: bioavailability (%)
Form entry: value (%) — number only.

q: Answer with reported bioavailability of `Nc1scc2c(C(=O)NC3CC3)nn(-c3ccc(Cl)cc3)c(=O)c12`
a: 70

----------
Drug uptake values, listed per item
Tested on: Brain
procedure_details: Drug level in brain of B6C3F1 mouse at 5 mg/kg, ip by LC-MS/MS analysis
Format: ADME, organism-based
Design: dose 5 mg/kg, route intraperitoneal
experimental_conditions: in vivo
Form entry: value (ng/g) — number only.

Sample answers from the record:
mol_smiles=Nc1scc2c(C(=O)NC3CC3)nn(-c3ccc(Cl)cc3)c(=O)c12 assayed_target=Brain numeric_readout=1299
mol_smiles=CCOC(=O)c1nn(-c2ccc(Cl)cc2)c(=O)c2c(N)scc12 assayed_target=Brain numeric_readout=67
mol_smiles=CNC(=O)c1nn(-c2ccc(Cl)cc2)c(=O)c2c(N)scc12 assayed_target=Brain numeric_readout=34

q: Answer with reported Drug uptake of `Nc1scc2c(C(=O)O)nn(-c3ccc(Cl)cc3)c(=O)c12`
a: 121

----------
procedure_details: Inhibition of heparin-induced K18PL tau protein aggregation assessed as thioflavin T binding by fluorescence assay relative to control
experimental_conditions: concentration not given here
Response key: 1 means inhibition >= 80%; -1 means inhibition < 80%.

Worked set:
mol_smiles=CC(C)NC(=O)c1nn(-c2ccc(Cl)cc2)c(=O)c2c(N)scc12 category=1
mol_smiles=Nc1scc2c(C(=O)O)nn(-c3ccc(Cl)cc3)c(=O)c12 category=1
mol_smiles=CCNC(=O)c1nn(-c2ccc(Cl)cc2)c(=O)c2c(N)scc12 category=1
mol_smiles=CCOC(=O)c1nn(-c2ccc(Cl)cc2)c(=O)c2c(N)scc12 category=-1
mol_smiles=CC(C)NC(=O)c1nn(-c2ccc(Br)cc2)c(=O)c2c(N)scc12 category=1

q: Does inhibition meet or surpass 80% for `CN(C)C(=O)c1nn(-c2ccc(Cl)cc2)c(=O)c2c(N)scc12` ?
a: -1

q: Does inhibition meet or surpass 80% for `CCN(C)C(=O)c1nn(-c2ccc(Cl)cc2)c(=O)c2c(N)scc12` ?
a: -1

q: Does inhibition meet or surpass 80% for `Nc1scc2c(C(=O)NC3CC3)nn(-c3ccc(Cl)cc3)c(=O)c12` ?
a: 1

----------
Tested on: Plasma
procedure_details: Drug level in plasma of B6C3F1 mouse at 5 mg/kg, ip by LC-MS/MS analysis
Assay type: ADME, organism-based
Design: dose 5 mg/kg, route intraperitoneal
experimental_conditions: in vivo
Consider the cut-off 500 ng/mL. If the recorded Drug uptake is strictly smaller, the label is YES; if not, the label is NO.

Worked set:
mol_smiles=Nc1scc2c(C(=O)NC3CC3)nn(-c3ccc(Cl)cc3)c(=O)c12 category=NO
mol_smiles=CCN(C)C(=O)c1nn(-c2ccc(Cl)cc2)c(=O)c2c(N)scc12 category=YES
mol_smiles=CN(C)C(=O)c1nn(-c2ccc(Cl)cc2)c(=O)c2c(N)scc12 category=YES
mol_smiles=Nc1scc2c(C(=O)O)nn(-c3ccc(Cl)cc3)c(=O)c12 category=NO

We now examine a further molecule.
q: Drug uptake under 500 ng/mL? Item: `CC(C)NC(=O)c1nn(-c2ccc(Br)cc2)c(=O)c2c(N)scc12`
a: YES

----------
Test system: Brain
procedure_details: Drug level in brain of B6C3F1 mouse at 5 mg/kg, ip by LC-MS/MS analysis
Assay type: ADME, organism-based
Parameters: dose 5 mg/kg, route intraperitoneal
experimental_conditions: in vivo
experimental_endpoint: log10(Drug uptake) (log10 of the value in ng/g)
Kindly note that the scale is log10 and the underlying Drug uptake is in ng/g.

Sample answers from the record:
mol_smiles=CCNC(=O)c1nn(-c2ccc(Cl)cc2)c(=O)c2c(N)scc12 experimental_endpoint="log10(Drug uptake)" numeric_readout=2.95
mol_smiles=CN(C)C(=O)c1nn(-c2ccc(Cl)cc2)c(=O)c2c(N)scc12 experimental_endpoint="log10(Drug uptake)" numeric_readout=1.15
mol_smiles=CC(C)NC(=O)c1nn(-c2ccc(Br)cc2)c(=O)c2c(N)scc12 experimental_endpoint="log10(Drug uptake)" numeric_readout=2.81
mol_smiles=CC(C)NC(=O)c1nn(-c2ccc(Cl)cc2)c(=O)c2c(N)scc12 experimental_endpoint="log10(Drug uptake)" numeric_readout=3.04
mol_smiles=CC(C)OC(=O)c1nn(-c2ccc(Cl)cc2)c(=O)c2c(N)scc12 experimental_endpoint="log10(Drug uptake)" numeric_readout=2.64

q: Answer with reported log10(Drug uptake) of `CCN(C)C(=O)c1nn(-c2ccc(Cl)cc2)c(=O)c2c(N)scc12`
a: 2.09
